# pEC50 per entry
biological target: GST tagged LXRalpha LBD (ligand binding domain) (Homo sapiens); assay: LanthaScreen TR-FRET Liver X Receptor Coactivator Assay, LXR alpha-LBD; settings: Inflection Point (potency), co-activator recruitment, relative to reference T0901317; read-out: LXR alpha IP
pEC50: −log10 of the molar value.
measurement_label: pEC50

>>> result_value("CCN(CC)C(=O)c1ccc(N2CCC(C3CCN(C(=O)c4c(F)cccc4F)CC3)CC2)cc1Cl")
5.72
>>> result_value("CC(C)[C@@](O)(C(=O)N1CCC(C2CCN(c3ccc(C(=O)N(C)C)c(Cl)c3)CC2)CC1)C(F)(F)F (single isomer, unassigned)")
5.99
>>> result_value("O=C(c1ccc(N2CCC(C3CCN(C(=O)[C@](O)(c4ccccc4)C(F)(F)F)CC3)CC2)cc1Cl)N1CCC[C@@H]1CO")
5.75
>>> result_value("CN(C)C(=O)c1ccc(N2CCC(C3CCN(C(=O)C(F)(F)c4ccccc4Cl)CC3)CC2)cc1Cl")
6.11
>>> result_value("COc1cccc([C@@](O)(C(=O)N2CCC(C3CCN(c4ccc(C(=O)N(C)C)c(Cl)c4)CC3)CC2)C(F)(F)F)c1 (single isomer, unassigned)")
5.67
>>> result_value("CC(C)N(C(=O)c1ccc(N2CCC(C3CCN(C(=O)C(O)(C(C)C)C(F)(F)F)CC3)CC2)cc1Cl)C(C)C (stereo not drawn)")
5.97

----------
target: GST tagged LXRbeta LBD (ligand binding domain) (Homo sapiens, UniProt P55055); construct: purchased Invitrogen pv4658.pps; test: LanthaScreen TR-FRET Liver X Receptor Coactivator Assay, LXR beta-LBD; assay type: biochemical; conditions: activity at max dose (efficacy), relative to reference T0901317; read-out: LXR beta act @ max dose (%)
measurement_label: Emax (%)

>>> result_value("CN(Cc1ccno1)C(=O)c1ccc(N2CCC(C3CCN(C(=O)[C@](O)(c4ccccc4)C(F)(F)F)CC3)CC2)cc1Cl")
74
>>> result_value("C=C(C)C(O)(C(=O)N1CCC(C2CCN(c3ccc(C(=O)N(C)C)c(Cl)c3)CC2)CC1)C(F)(F)F (stereo not drawn)")
86
>>> result_value("O=C(NC1CN(C(=O)c2ccc(N3CCC(C4CCN(C(=O)[C@](O)(c5ccccc5)C(F)(F)F)CC4)CC3)cc2Cl)C1)c1ccccc1")
74

----------
This section presents molecules with their documented pEC50 values.
target: GST tagged LXRbeta LBD (ligand binding domain) (Homo sapiens, UniProt P55055); assay: LanthaScreen TR-FRET Liver X Receptor Coactivator Assay, LXR beta-LBD; conditions: Inflection Point (potency), co-activator recruitment, relative to reference T0901317; read-out: LXR beta IP
pEC50: −log10 of the molar value.
measurement_label: pEC50

>>> result_value("CN(C)C(=O)c1ccc(N2CCC(C3CCN(C(=O)[C@@](O)(c4ccccc4)C(F)(F)C(F)(F)F)CC3)CC2)cc1Cl (single isomer, unassigned) [Example A-43]")
7.27
>>> result_value("O=C(NC1CN(C(=O)c2ccc(N3CCC(C4CCN(C(=O)[C@](O)(c5ccccc5)C(F)(F)F)CC4)CC3)cc2Cl)C1)c1ccccc1 [Example E-41]")
6.93
>>> result_value("CN(C)C(=O)c1ccc(N2CCC(C3CCN(C(=O)C(c4ccccc4)C(F)(F)F)CC3)CC2)cc1Cl (stereo not drawn) [Example A-98]")
6.49

----------
Examples of molecules with documented Emax follow.
target: GST tagged LXRbeta LBD (ligand binding domain) (Homo sapiens); construct: purchased Invitrogen pv4658.pps; test: LanthaScreen TR-FRET Liver X Receptor Coactivator Assay, LXR beta-LBD; assay type: biochemical; details: activity at max dose (efficacy), relative to reference T0901317; read-out: LXR beta act @ max dose (%)
measurement_label: Emax (%)

>>> result_value("CS(=O)(=O)c1ccc(N2CCC(C3CCN(C(=O)[C@](O)(c4ccccc4)C(F)(F)F)CC3)CC2)cc1Cl")
82
>>> result_value("CN(C)C(=O)c1ccc(N2CCC(C3CCN(C(=O)c4c(Cl)cccc4Cl)CC3)CC2)nc1Cl")
106
>>> result_value("CN(C)C(=O)c1ccc(N2CCC(C3CCN(C(=O)C4(c5ccc(Cl)cc5)CCC4)CC3)CC2)cc1Cl")
78
>>> result_value("O=C(c1ccc(N2CCC(C3CCN(C(=O)[C@](O)(c4ccccc4)C(F)(F)F)CC3)CC2)cc1Cl)N1CCC(O)C1 (stereo partly shown)")
76

----------
Parameter Emax: see the listing below.
biological target: GST tagged LXRalpha LBD (ligand binding domain) (Homo sapiens, UniProt Q13133); construct: purchased Invitrogen pv4655; assay: LanthaScreen TR-FRET Liver X Receptor Coactivator Assay, LXR alpha-LBD; assay type: biochemical; settings: activity at max dose (efficacy), relative to reference T0901317; read-out: LXR alpha act @ max dose (%)
Sequence (Q13133 209-447 limits assumed): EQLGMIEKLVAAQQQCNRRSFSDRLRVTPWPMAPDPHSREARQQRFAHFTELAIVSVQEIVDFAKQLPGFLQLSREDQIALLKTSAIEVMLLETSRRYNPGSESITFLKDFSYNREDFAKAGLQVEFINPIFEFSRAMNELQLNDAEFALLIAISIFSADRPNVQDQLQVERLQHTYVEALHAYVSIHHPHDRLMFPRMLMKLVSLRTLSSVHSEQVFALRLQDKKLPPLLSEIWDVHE
measurement_label: Emax (%)

>>> result_value("CCN(CC)C(=O)c1ccc(N2CCC(C3CCN(C(=O)C(O)(C(C)C)C(F)(F)F)CC3)CC2)cc1Cl (stereo not shown)")
49
>>> result_value("CC(C)C(O)(C(=O)N1CCC(C2CCN(c3ccc(C(=O)N(C)C)c(Cl)n3)CC2)CC1)C(C)C")
47
>>> result_value("Cc1cccc(C2(C(=O)N3CCC(C4CCN(c5ccc(C(=O)N(C)C)c(Cl)c5)CC4)CC3)CCC2)c1")
17
>>> result_value("CS(=O)(=O)c1ccc(N2CCC(C3CCN(C(=O)c4c(F)cccc4F)CC3)CC2)cc1Cl")
18
>>> result_value("CN(Cc1noc(C2CC2)n1)C(=O)c1ccc(N2CCC(C3CCN(C(=O)[C@](O)(c4ccccc4)C(F)(F)F)CC3)CC2)cc1Cl")
55
>>> result_value("CCN(CC)C(=O)c1ccc(N2CCC(C3CCN(C(=O)c4c(F)cccc4F)CC3)CC2)cc1Cl")
30
>>> result_value("O=C(c1ccc(N2CCC(C3CCN(C(=O)[C@](O)(c4ccccc4)C(F)(F)F)CC3)CC2)cc1Cl)N1CCC[C@@H]1CO")
25

----------
Target: GST tagged LXRbeta LBD (ligand binding domain) (Homo sapiens)
Construct: purchased Invitrogen pv4658.pps
Sequence (P55055 222-460 limits assumed): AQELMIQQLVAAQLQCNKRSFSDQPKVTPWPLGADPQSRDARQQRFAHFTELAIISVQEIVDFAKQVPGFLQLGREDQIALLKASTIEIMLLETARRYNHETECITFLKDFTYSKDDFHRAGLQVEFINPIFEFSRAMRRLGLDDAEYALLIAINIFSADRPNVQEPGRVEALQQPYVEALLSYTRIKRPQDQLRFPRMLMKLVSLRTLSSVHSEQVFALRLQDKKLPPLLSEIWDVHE
Assay: LanthaScreen TR-FRET Liver X Receptor Coactivator Assay, LXR beta-LBD
Assay type: biochemical
Conditions: activity at max dose (efficacy), relative to reference T0901317; read-out: LXR beta act @ max dose (%)
As shown below, each of these compounds has a reported Emax value.
measurement_label: Emax (%)

>>> result_value("CN(C)C(=O)c1ccc(N2CCC(C3CCN(C(=O)c4c(F)cccc4Cl)CC3)CC2)cc1Cl")
107
>>> result_value("C#CC(C)(C)C(=O)N1CCC(C2CCN(c3ccc(C(=O)N(C)C)c(Cl)c3)CC2)CC1")
125
>>> result_value("CCC(F)(C(=O)N1CCC(C2CCN(c3ccc(C(=O)N(C)C)c(Cl)c3)CC2)CC1)c1ccccc1 (stereo not drawn)")
115
>>> result_value("CN(C)C(=O)c1ccc(N2CCC(C3CCN(C(=O)C4(C(F)(F)F)CCCC4)CC3)CC2)cc1Cl")
123
>>> result_value("CN(C)C(=O)c1ccc(N2CCC(C3CCN(C(=O)C4(c5ccc(O)cc5)CCCC4)CC3)CC2)cc1Cl")
75
>>> result_value("CN(C)C(=O)c1ccc(N2CCC(C3CCN(C(=O)C(O)(c4ccccc4)C(F)(F)F)CC3)CC2)nc1Cl (stereo not drawn) [Example B-13]")
95
>>> result_value("COc1ccccc1C1(C(=O)N2CCC(C3CCN(c4ccc(C(=O)N(C)C)c(Cl)c4)CC3)CC2)CCC1")
110
>>> result_value("CCN(CC)C(=O)c1ccc(N2CCC(C3CCN(C(=O)C(O)(C(C)C)C(F)(F)F)CC3)CC2)cc1Cl (stereo not drawn)")
96
>>> result_value("CN(C)C(=O)c1ccc(N2CCC(C3CCN(C(=O)OC(C)(C)C)CC3)CC2)nc1Cl")
119
>>> result_value("COC(=O)C1CN(C(=O)c2ccc(N3CCC(C4CCN(C(=O)[C@](O)(c5ccccc5)C(F)(F)F)CC4)CC3)cc2Cl)C1")
57
>>> result_value("CN(C)C(=O)c1ccc(N2CCC(C3CCN(C(=O)c4c(F)cccc4F)CC3)CC2)cc1Cl")
92
>>> result_value("CN(C)C(=O)c1ccc(N2CCC(C3CCN(C(=O)c4c(F)cccc4C(F)(F)F)CC3)CC2)cc1Cl")
109
>>> result_value("CN(C)C(=O)c1ccc(N2CCC(C3CCN(c4ccccc4C(F)(F)F)CC3)CC2)cc1Cl")
91
>>> result_value("CC(C)C(O)(C(=O)N1CCC(C2CCN(c3ccc(C(=O)N(C)C)c(Cl)n3)CC2)CC1)C(F)(F)F (stereo in doubt) [Example B-5]")
115
>>> result_value("CN(C)C(=O)c1ccc(N2CCC(C3CCN(C(=O)C4(c5ccccc5Cl)CCCC4)CC3)CC2)cc1Cl")
124

Where do the numbers come from? From patent US20180305332A1.
